This listing pairs compounds with measured IC50.
- target.system: Human recombinant PDE2A (hPDE2A) (Homo sapiens)
- Construct: His tag (inferred from metal chelate purification); made in house; host or cells: Sf9 insect cells (baculovirus)
- Sequence (O00408 whole entry): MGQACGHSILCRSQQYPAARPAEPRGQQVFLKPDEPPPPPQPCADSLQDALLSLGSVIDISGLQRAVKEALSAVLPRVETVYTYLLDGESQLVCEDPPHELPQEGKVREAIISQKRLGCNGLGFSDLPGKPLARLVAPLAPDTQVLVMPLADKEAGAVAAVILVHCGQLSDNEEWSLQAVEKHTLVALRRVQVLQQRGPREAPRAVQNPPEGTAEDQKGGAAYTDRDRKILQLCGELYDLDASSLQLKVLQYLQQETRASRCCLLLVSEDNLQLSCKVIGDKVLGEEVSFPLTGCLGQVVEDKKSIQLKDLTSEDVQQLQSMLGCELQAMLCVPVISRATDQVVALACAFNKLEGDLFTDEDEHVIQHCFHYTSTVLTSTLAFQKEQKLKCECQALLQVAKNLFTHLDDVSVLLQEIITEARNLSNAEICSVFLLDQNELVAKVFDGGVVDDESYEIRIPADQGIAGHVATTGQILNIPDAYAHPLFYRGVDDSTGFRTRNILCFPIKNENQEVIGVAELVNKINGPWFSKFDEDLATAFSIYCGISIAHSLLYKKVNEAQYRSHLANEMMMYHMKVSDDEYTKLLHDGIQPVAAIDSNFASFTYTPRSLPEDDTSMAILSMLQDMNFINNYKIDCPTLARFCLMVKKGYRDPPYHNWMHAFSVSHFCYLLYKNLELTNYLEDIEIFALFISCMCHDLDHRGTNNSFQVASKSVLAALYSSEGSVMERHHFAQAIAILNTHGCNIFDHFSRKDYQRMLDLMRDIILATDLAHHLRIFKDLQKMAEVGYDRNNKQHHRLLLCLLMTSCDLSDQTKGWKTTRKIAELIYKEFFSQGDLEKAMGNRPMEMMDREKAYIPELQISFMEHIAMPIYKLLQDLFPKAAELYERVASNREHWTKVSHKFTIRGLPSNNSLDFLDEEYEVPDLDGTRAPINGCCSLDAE
- measurement.description: In vitro assay PDE2A (SPA, 3H-cGMP hydrolysis)
- Assay type: biochemical
- condition.set: read-out: hPDE2A pIC50 (converted)
assay.metric: IC50 (nM)

>  <entry.smiles>
COc1ncc(C(=O)N2CC[C@@H](C)[C@H](c3cc(C(F)F)nc4ncnn34)C2)cc1Cl

>  <target.system>
Human recombinant PDE2A (hPDE2A) (Homo sapiens)

>  <assay.metric>
IC50

>  <result.number>
3.16

$$$$
>  <entry.smiles>
Cc1nccc(C(=O)N2CC[C@@H](C)[C@H](c3cc(C(F)F)nc4ncnn34)C2)c1F

>  <target.system>
Human recombinant PDE2A (hPDE2A) (Homo sapiens)

>  <assay.metric>
IC50

>  <result.number>
6.31

$$$$
>  <entry.smiles>
Cc1ncc(C(=O)N2CC[C@@H](C)[C@H](c3cc(C(F)F)nc4ncnn34)C2)cn1

>  <target.system>
Human recombinant PDE2A (hPDE2A) (Homo sapiens)

>  <assay.metric>
IC50

>  <result.number>
676

$$$$
>  <entry.smiles>
Cc1cc(C(=O)N2CC[C@@H](C)[C@H](c3cc(C(F)F)nc4ncnn34)C2)c(F)c(C2CC2)n1

>  <target.system>
Human recombinant PDE2A (hPDE2A) (Homo sapiens)

>  <assay.metric>
IC50

>  <result.number>
0.933

$$$$
>  <entry.smiles>
O=C(c1cnc2c(F)cccc2c1)N1[C@H]2CC[C@H](c3cc(C(F)F)nc4ncnn34)[C@@H]1CC2

>  <target.system>
Human recombinant PDE2A (hPDE2A) (Homo sapiens)

>  <assay.metric>
IC50

>  <result.number>
2.95

$$$$
>  <entry.smiles>
Cc1cc(C(=O)N2[C@H]3CC[C@H](c4cc(C(F)F)nc5ncnn45)[C@@H]2CC3)c(C)s1

>  <target.system>
Human recombinant PDE2A (hPDE2A) (Homo sapiens)

>  <assay.metric>
IC50

>  <result.number>
26.9

$$$$
>  <entry.smiles>
COc1ccc(C(=O)N2[C@H]3CC[C@H](c4cc(C(F)F)nc5ncnn45)[C@@H]2CC3)cc1OC

>  <target.system>
Human recombinant PDE2A (hPDE2A) (Homo sapiens)

>  <assay.metric>
IC50

>  <result.number>
3.89

$$$$
>  <entry.smiles>
C[C@@H]1CCN(C(=O)c2cc3n(n2)CCO3)C[C@H]1c1cc(C(F)F)nc2ncnn12

>  <target.system>
Human recombinant PDE2A (hPDE2A) (Homo sapiens)

>  <assay.metric>
IC50

>  <result.number>
93.3

$$$$
>  <entry.smiles>
O=C(c1cc(Cl)cc(Cl)c1)N1[C@H]2CC[C@H](c3cc(C(F)F)nc4ncnn34)[C@@H]1CC2

>  <target.system>
Human recombinant PDE2A (hPDE2A) (Homo sapiens)

>  <assay.metric>
IC50

>  <result.number>
8.13

$$$$
>  <entry.smiles>
Cc1cc([C@@H]2CN(C(=O)c3ccnc(Cl)c3F)CC[C@H]2C)n2ncnc2n1

>  <target.system>
Human recombinant PDE2A (hPDE2A) (Homo sapiens)

>  <assay.metric>
IC50

>  <result.number>
22.9

$$$$
>  <entry.smiles>
O=C(c1cc(OC(F)F)cc(C2CC2)c1)N1[C@H]2CC[C@H](c3cc(C(F)F)nc4ncnn34)[C@@H]1CC2

>  <target.system>
Human recombinant PDE2A (hPDE2A) (Homo sapiens)

>  <assay.metric>
IC50

>  <result.number>
7.59

$$$$
>  <entry.smiles>
Cc1cc(C(=O)N2CC[C@@H](C)[C@H](c3cc(C(F)F)nc4ncnn34)C2)c(F)c(C)n1

>  <target.system>
Human recombinant PDE2A (hPDE2A) (Homo sapiens)

>  <assay.metric>
IC50

>  <result.number>
1.95

$$$$
>  <entry.smiles>
COc1nc(C)cc(C(=O)N2CC[C@@H](C)[C@H](c3cc(C(F)F)nc4ncnn34)C2)c1F

>  <target.system>
Human recombinant PDE2A (hPDE2A) (Homo sapiens)

>  <assay.metric>
IC50

>  <result.number>
2.88

$$$$
>  <entry.smiles>
C[C@@H]1CCN(C(=O)c2cccc(C(C)(C)C#N)c2)C[C@H]1c1cc(C(F)F)nc2ncnn12

>  <target.system>
Human recombinant PDE2A (hPDE2A) (Homo sapiens)

>  <assay.metric>
IC50

>  <result.number>
4.9

$$$$
>  <entry.smiles>
C[C@@H]1CCN(C(=O)c2ccc3c(c2)OCCC3)C[C@H]1c1cc(C(F)F)nc2ncnn12

>  <target.system>
Human recombinant PDE2A (hPDE2A) (Homo sapiens)

>  <assay.metric>
IC50

>  <result.number>
0.55

$$$$
